Test system: LDL oxidation
Assay: Inhibition of LDL oxidation in vitro, method of Esterbauer et al (1988), CuSO4, 234 nm
Format: biochemical
Details: 1 μM, LDL isolated from human whole blood, room temperature, at least 8 h
READOUT: LDL oxidation inhibition (prolongation of lag phase in min)
Answers are plain numbers, in min.

Example results:
{"columns": ["MOLECULE", "EXPERIMENTAL_SYSTEM", "OBSERVED_VALUE"],
 "data": [
  ["CN(C)c1ccc([C@]2(O)CC[C@H]3[C@@H]4CCc5cc(O)ccc5[C@H]4CC[C@@]32C)cc1", "LDL oxidation", 170],
  ["Cc1cc(C2=C[C@@H]3[C@H](CC[C@]4(C)[C@@H](O)CC[C@@H]34)c3ccc(O)cc32)cc(C)c1O", "LDL oxidation", 180],
  ["C[C@]12CC[C@@H]3c4ccc(O)cc4CC[C@H]3[C@@H]1C[C@@H](O)[C@@H]2O [Estriol, reference compound]", "LDL oxidation", 20]
]}

Give me LDL oxidation inhibition (prolongation of lag phase in min) for each of these molecules, listed below.
1. C[C@]12CC=C3c4ccc(O)cc4CC[C@H]3[C@@H]1CC[C@@]2(O)Cc1ccc(O)cc1
2. C[C@]12CC[C@@H]3c4ccc(O)cc4CC[C@H]3[C@@H]1CC[C@@]2(O)CSc1ccc(O)cc1
3. C[C@]12CC[C@@H]3c4ccc(O)cc4CC[C@H]3[C@@H]1CC[C@@H]2O [17β-Estradiol, reference compound]
4. C[C@]12CC=C3c4ccc(O)cc4CC[C@H]3[C@@H]1CC[C@@]2(O)CSc1ccc(O)cc1
5. C[C@]12CC[C@@H]3c4ccc(O)cc4CC[C@H]3[C@@H]1CC[C@@]2(O)Cc1ccc(O)cc1
6. Cc1c(C)c2c(c(C)c1O)CCC(C)(CN1CCN(c3cc(N4CCCC4)nc(N4CCCC4)n3)CC1)O2 (stereo not shown) [Example U-78517F, reference compound]

[230, 120, 40, 270, 125, 20]

Find the recorded LDL oxidation inhibition (prolongation of lag phase in min) belonging to COc1ccc2c(c1)CC[C@@H]1[C@@H]2CC[C@@]2(C)[C@H]1CC[C@@]2(O)Cc1ccc(N(C)C)cc1 and report it.
195
